- assay-explanation: Pharmacokinetic study after intravenous injection, LC-MS/MS of plasma
- Format: in vivo
- test-conditions: rat, rats, 4.5 mg/kg
observable: half-life

{"columns": ["molecule", "observable", "reported-result"],
 "data": [
  ["COc1ccc(C(C)=O)c(OC(=O)C=Cc2ccc(Cn3ccnc3)cc2)c1 [POC, paeonol-ozagrel conjugate]", "half-life", "53.5 min"]
]}

----------
- assay-explanation: Pharmacokinetic study after intravenous injection, LC-MS/MS of plasma
- Assay type: in vivo
- test-conditions: rat, rats, 4.5 mg/kg
observable: AUC(0-t) (ng·h/mL)

{"columns": ["compound", "observable", "reported-result"],
 "data": [
  ["COc1ccc(C(C)=O)c(OC(=O)C=Cc2ccc(Cn3ccnc3)cc2)c1 [POC, paeonol-ozagrel conjugate]", "AUC(0-t)", 264]
]}

----------
- assay-explanation: Pharmacokinetic study after intravenous injection, LC-MS/MS of plasma
- Assay type: in vivo
- test-conditions: rat, rats, 4.5 mg/kg

{"columns": ["compound", "measurement-units", "Cmax"],
 "data": [
  ["COc1ccc(C(C)=O)c(OC(=O)C=Cc2ccc(Cn3ccnc3)cc2)c1 [POC, paeonol-ozagrel conjugate]", "ng/mL", 465]
]}

----------
- assay-explanation: Pharmacokinetic study after intravenous injection, LC-MS/MS of plasma
- Type: in vivo
- test-conditions: rat, rats, 4.5 mg/kg, read-out: MRT0-t (converted)
observable: MRT last (min)

{"columns": ["compound", "observable", "reported-result"],
 "data": [
  ["COc1ccc(C(C)=O)c(OC(=O)C=Cc2ccc(Cn3ccnc3)cc2)c1 [POC, paeonol-ozagrel conjugate]", "MRT last", 51.9]
]}

----------
- assay-explanation: Partition coefficient, shake-flask method (n-octanol / aqueous phase)
- Assay type: physicochemical
- test-conditions: n-octanol / aqueous phase buffered with phosphate pH 7.4, shake-flask, HPLC

{"columns": ["molecule", "logD"],
 "data": [
  ["COc1ccc(C(C)=O)c(OC(=O)C=Cc2ccc(Cn3ccnc3)cc2)c1 [POC, paeonol-ozagrel conjugate]", 0.425]
]}

Measured values drawn from paper PMC7883289 for this set.
